// provenance: patent US8039430B2

System: E.f243
assay.remarks: Antibacterial screening (MIC) of compounds of Example 2, E.f243
Type: cell-based, Enterococcus faecium
condition.info: Enterococcus faecium; Example 2 compounds; enterococci strain E.f243; read-out: Antibacterial activity μg/mL, E.f243
Method: • All assays used the Staphylococcus aureus strain ATCC 6538P. • Assays described in Chapter 5 additionally used the vancomycin-resistant enterococci and vancomycin-sensitive enterococci strains Ef243, Ef449, Ef820 and Ef487. Culture Media • Mueller-Hinton Broth Medium (MHB): MHB (Oxoid CM405) was prepared with final concentrations of […] MgCl2 and 2 μg/mL CaCl2. […]

| molecule | MIC |
| --- | --- |
| CCCOc1ccc2ccccc2c1-c1c(OCC(=O)N[C@H](CCCNC(=N)N)C(=O)Nc2cccc(C(=O)NO)c2)ccc2ccccc12.Cl (atropisomer, axis not shown) | > 125 µg/mL |
| C=CC[C@H](NC(=O)[C@@H](CCCNC(=N)N)NC(=O)[C@@H](CCCCN)NC(=O)[C@H](Cc1ccc(-c2c3ccccc3cc3ccccc23)cc1)NC(C)=O)C(=O)OCc1ccccc1.Cl.Cl | > 125 µg/mL |
| C=CCOc1ccc2ccccc2c1-c1c(OCC(=O)N[C@H](CCCNC(=N)N)C(=O)Nc2cccc(C(=O)NOCc3ccccc3)c2)ccc2ccccc12.Cl (atropisomer, axis not shown) | > 125 µg/mL |
